Reference for the values: patent US12668607B2

Test system: THP1-Dual™ cells
Assay: THP-Dual in vitro binding assay (THP1-Dual reporter cells, Lucia luciferase/QUANTI-Luc)
Format: cell-based, human
Conditions: Homo sapiens, 30 min compound exposure, wash, 18 h incubation, IF-α/β activity by QUANTI-Luc
endpoint-name: EC50 (nM)

| compound | unit-descriptor | EC50 |
| --- | --- | --- |
| CCn1nc(C)c2c1C(=O)/N=C1\Nc3cc(C(N)=O)cc(OCCCO[C@H]4[C@@H](OC)O[C@H](CO)[C@@H](O)[C@@H]4O)c3N1C/C=C/CN1/C(=N\C(=O)c3cc(C)nn3CCCCC2)Nc2cc(C(N)=O)cc(OC)c21 | nM | 60 |
| CCn1nc(C)cc1C(=O)/N=c1/[nH]c2cc(C(N)=O)cc(OC)c2n1C/C=C/Cn1/c(=N/C(=O)c2cc(C)nn2CC)[nH]c2cc(C(N)=O)cc(OCCCOC(=O)[C@@H](N)C(C)C)c21 | nM | 8 |

[1] CCn1nc(C)cc1C(=O)/N=c1/[nH]c2cc(C(N)=O)cc(OC)c2n1C/C=C/Cn1/c(=N/C(=O)c2cc(C)nn2CC)[nH]c2cc(C(N)=O)cc(OCCN3CCCC4(CCNC4)C3)c21 (stereo not shown)
[2] CCn1nc(C)cc1C(=O)/N=c1/[nH]c2cc(C(N)=O)cc(OC)c2n1C/C=C/Cn1/c(=N/C(=O)c2cc(C)nn2CC)[nH]c2cc(C(N)=O)cc(OCCCO[C@H]3[C@H](OC)O[C@H](CO)[C@H]3O)c21
[3] CCn1nc(C)cc1C(=O)/N=c1/[nH]c2cc(C(N)=O)cc(OC)c2n1C/C=C/Cn1/c(=N/C(=O)c2cc(C)nn2CC)[nH]c2cc(C(N)=O)cc(OCCCN3CC4(COC4)C3)c21
[4] CCn1nc(C)cc1C(=O)/N=c1/[nH]c2cc(C(N)=O)cc(OC)c2n1C/C=C/Cn1/c(=N/C(=O)c2cc(C)nn2CC)[nH]c2cc(C(N)=O)cc(OCCCO[C@H]3[C@@H](OC)O[C@H](CO)[C@@H](O)[C@@H]3O)c21
[5] CCn1nc(C)cc1C(=O)/N=c1/[nH]c2cc(C(N)=O)cc(OCCCN3CCOCC3)c2n1C/C=C/Cn1/c(=N/C(=O)c2cc(C)nn2CC)[nH]c2cc(C(N)=O)cc(OCCCO[C@H]3[C@@H](OC)O[C@H](CO)[C@@H](O)[C@@H]3O)c21
Lookup: Arrange these compounds by their EC50, starting with the largest number. Answer by listing the labels in the order asked for.
Found: 1, 5, 3, 2, 4
